Study target: AMPK
Experimental details: AMPK activation, enzyme-linked immunosorbent assay
Format: biochemical
Particulars: Table 13, compounds of Table 6
Exercise: for every item that follows, state its recorded EC50.

Hey, AMPK data for "N#Cc1ccc(CN2CCC(NC(=O)c3cc4cc(C(=O)N5CCN(Cc6ccc(-n7cccn7)cc6)CC5)ccc4o3)CC2)cc1" : EC50 came out at < 100 nM

# "CS(=O)(=O)c1ccc(CN2CCN(C(=O)c3ccc4oc(C(=O)NC5CCN(Cc6ccc(OC(F)(F)C(F)F)cc6)CC5)cc4c3)CC2)cc1" with AMPK: EC50 is < 100 nM

The compound "CS(=O)(=O)c1ccc(CN2CCN(C(=O)c3ccc4cc(C(=O)NC5CCN(Cc6ccc(OC(F)(F)F)cc6)CC5)oc4c3)CC2)cc1" , tested on AMPK, showed EC50 of 100 to 1000 nM

====

Study target: AMPK
Experimental details: AMPK activation, enzyme-linked immunosorbent assay
Assay type: biochemical
Particulars: Table 8, compounds of Table 1
Kindly supply the reported EC50 values for the records listed here.

Record "Cc1c(C(=O)NC2CCN(C(=O)OC(C)(C)C)CC2)oc2cc(OC3CCN(c4ccc(C(F)(F)F)cc4)CC3)ccc12" . Reported EC50: 100 to 500 nM

Just so you know, measured EC50 for "NC(=O)c1ccc(CN2CCC(Oc3ccc4oc(C(=O)NC5CCN(Cc6ccncc6)CC5)cc4c3)CC2)cc1" came out at 1000 to 5000 nM

Recorded EC50 (compound "N#Cc1ccc(CN2CCC(NC(=O)c3cc4cc(OC5CCN(C(=O)c6ccc(-n7cccn7)cc6)CC5)ccc4o3)CC2)cc1" ): < 100 nM

Entry under test: "N#Cc1ccc(CN2CCC(NC(=O)c3cc4cc(O[C@@H]5CCN(Cc6ccc(-n7cccn7)cc6)C[C@H]5F)ccc4o3)CC2)cc1" . Its EC50 was 100 to 500 nM

Given item "N#Cc1cccc(CN2CCC(NS(=O)(=O)c3ccc(OC4CCN(c5ccc(C(F)(F)F)cc5)CC4)nc3)CC2)c1" , the value recorded as its EC50 is 500 to 1000 nM

Looking up "CC(C)(C)OC(=O)N1CCC(NC(=O)c2cc3cc(OC4CCN(Cc5ccc(C#N)cc5)CC4)ccc3o2)CC1" , I found its EC50 recorded as 100 to 500 nM

====

Study target: AMPK
Experimental details: AMPK activation, enzyme-linked immunosorbent assay
Assay type: biochemical
Particulars: Table 12, compounds of Table 5
Quantity: EC50

Just so you know, measured EC50 for "N#Cc1cccc(CN2CCC(Oc3cccc(C(=O)NC4CCN(Cc5ccccc5)CC4)c3)CC2)c1" came out at 1 to 10 µM

Entry "Cn1cncc1CN1CCC(Oc2ccc(C(=O)NC3CCN(Cc4ccccc4)CC3)cc2)CC1" , EC50 reported as > 100 µM

response.value for "O=C(O)c1ccc(CN2CCC(NC(=O)c3ccc(OC4CCN(c5ccc(C(F)(F)F)cc5)CC4)c(F)c3)CC2)cc1" (field: EC50) = 1 to 10 µM

Memo: "O=C(c1ccc(OC2CCN(Cc3ccccc3)CC2)cc1)N1CCN(Cc2ccccn2)CC1" , reported EC50: 10 to 20 µM

Form field EC50, entry "O=C(NC1CCN(Cc2ccccc2)CC1)c1cccc(OC2CCN(Cc3ccccc3)CC2)c1" : 20 to 50 µM

EC50 measured on "CC(C)Oc1ccc(CN2CCC(Oc3cccc(C(=O)NC4CCN(Cc5ccc(C#N)cc5)CC4)c3)CC2)cc1" = < 1 µM

// sample "N#Cc1ccc(CN2CCC(NC(=O)c3ccc(OC4CCN(c5ccc(C(F)(F)F)cc5)CC4)c(F)c3)CC2)cc1" , its EC50 was < 1 µM
